Sourced from patent US12383544B2

tgt: wild type mouse CFTR (Mus musculus)
Construct: expressed in transfected cells; host or cells: mouse mIMCD3_wt cells (ATCC CRL-2123)
Sequence (P26361 whole entry): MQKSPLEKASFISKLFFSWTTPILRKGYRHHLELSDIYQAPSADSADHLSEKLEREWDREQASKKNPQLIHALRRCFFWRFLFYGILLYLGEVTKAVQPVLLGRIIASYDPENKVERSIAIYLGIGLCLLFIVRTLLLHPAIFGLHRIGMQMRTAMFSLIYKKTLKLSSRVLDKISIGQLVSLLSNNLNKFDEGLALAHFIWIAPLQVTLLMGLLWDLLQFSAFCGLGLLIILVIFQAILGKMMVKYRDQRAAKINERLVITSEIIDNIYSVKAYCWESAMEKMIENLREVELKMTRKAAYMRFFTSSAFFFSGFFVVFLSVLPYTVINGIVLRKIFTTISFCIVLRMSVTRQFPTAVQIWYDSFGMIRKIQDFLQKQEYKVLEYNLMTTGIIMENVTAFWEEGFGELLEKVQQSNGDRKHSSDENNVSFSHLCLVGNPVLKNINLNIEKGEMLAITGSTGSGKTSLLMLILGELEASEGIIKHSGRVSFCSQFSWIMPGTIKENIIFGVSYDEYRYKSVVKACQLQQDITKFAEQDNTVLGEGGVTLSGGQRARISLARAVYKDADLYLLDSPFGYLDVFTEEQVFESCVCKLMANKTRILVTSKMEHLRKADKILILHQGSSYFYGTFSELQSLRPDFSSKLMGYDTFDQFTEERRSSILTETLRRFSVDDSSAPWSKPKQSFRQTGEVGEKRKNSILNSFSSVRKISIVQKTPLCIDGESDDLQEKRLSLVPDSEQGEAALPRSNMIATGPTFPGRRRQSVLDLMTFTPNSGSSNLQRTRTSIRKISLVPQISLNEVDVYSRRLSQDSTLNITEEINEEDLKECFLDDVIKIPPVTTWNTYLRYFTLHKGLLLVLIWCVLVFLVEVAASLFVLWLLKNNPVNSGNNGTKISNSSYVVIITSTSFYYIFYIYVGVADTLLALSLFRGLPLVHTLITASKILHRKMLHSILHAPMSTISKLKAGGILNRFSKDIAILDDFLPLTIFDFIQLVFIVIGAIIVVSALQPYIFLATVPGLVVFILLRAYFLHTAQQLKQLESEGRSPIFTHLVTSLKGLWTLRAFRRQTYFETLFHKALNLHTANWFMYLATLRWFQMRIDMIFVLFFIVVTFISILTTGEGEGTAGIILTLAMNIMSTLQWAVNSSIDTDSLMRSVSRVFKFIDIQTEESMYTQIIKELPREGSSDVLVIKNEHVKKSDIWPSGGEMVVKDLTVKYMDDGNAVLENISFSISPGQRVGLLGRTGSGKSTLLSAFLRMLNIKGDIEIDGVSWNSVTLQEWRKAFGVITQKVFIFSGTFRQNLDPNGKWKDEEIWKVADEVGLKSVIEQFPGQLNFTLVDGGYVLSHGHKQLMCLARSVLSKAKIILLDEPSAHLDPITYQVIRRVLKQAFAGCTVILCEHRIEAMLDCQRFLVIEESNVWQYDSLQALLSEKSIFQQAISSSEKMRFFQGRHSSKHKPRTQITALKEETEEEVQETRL
assay_summary: YFP halide (YHA) assay in mIMCD3_wt cells, Cpd 1 with Metformin
Type: cell-based
assay_setup: [Metformin] 2500 μM; mIMCD3_wt cells; read-out: IC50
outcome_measure: IC50 (nM)
Express your answer in nM, writing the number without its unit.

Log: wild type mouse CFTR (Mus musculus), compound COC1CCN(C2CCN(c3cc(C(=O)NS(=O)(=O)N(C)C)nc4c3c(C3CCC3)nn4-c3ccc(F)cc3)CC2)CC1 , IC50 = 830

###

tgt: wild type mouse CFTR (Mus musculus)
Construct: expressed in transfected cells; host or cells: mouse mIMCD3_wt cells (ATCC CRL-2123)
assay_summary: YFP halide (YHA) assay in mIMCD3_wt cells, Cpd 1 with Metformin
Type: cell-based
assay_setup: [Metformin] 310 μM; mIMCD3_wt cells; read-out: IC50
outcome_measure: IC50 (nM)
Your answer should be a plain number; it is taken to be in nM.

wild type mouse CFTR (Mus musculus) data for COC1CCN(C2CCN(c3cc(C(=O)NS(=O)(=O)N(C)C)nc4c3c(C3CCC3)nn4-c3ccc(F)cc3)CC2)CC1 [Cpd 1] ; its IC50: 1910
